- assay_system: Serotonin 3 (5-HT3) receptor
- procedure_text: Inhibition of [3H]GR-65630 binding to rabbit ileum muscularis 5-HT3 receptor

| chemical_string | IC50 |
| --- | --- |
| COc1cccc(OC)c1-c1cccc2c1CC[C@H](N(C)C)C2 | > 1000 nM |

---

- assay_system: 5-hydroxytryptamine receptor 7 (Rattus norvegicus)
- Sequence (P32305 whole entry): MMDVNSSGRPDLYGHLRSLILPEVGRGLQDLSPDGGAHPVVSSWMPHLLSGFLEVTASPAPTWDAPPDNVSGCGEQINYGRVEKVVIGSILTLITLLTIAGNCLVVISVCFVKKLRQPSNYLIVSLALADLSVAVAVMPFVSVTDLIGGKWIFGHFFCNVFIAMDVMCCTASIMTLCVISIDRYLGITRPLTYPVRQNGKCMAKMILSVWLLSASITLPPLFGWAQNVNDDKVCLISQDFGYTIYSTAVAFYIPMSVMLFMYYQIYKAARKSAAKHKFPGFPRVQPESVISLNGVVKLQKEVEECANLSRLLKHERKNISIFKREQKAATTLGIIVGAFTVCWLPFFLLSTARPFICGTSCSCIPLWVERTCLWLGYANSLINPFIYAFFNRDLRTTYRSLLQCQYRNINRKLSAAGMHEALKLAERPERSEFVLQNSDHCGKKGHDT
- procedure_text: Inhibition of [3H]-5-HT binding to rat 5-hydroxytryptamine 7 receptor
pKi: −log10 of the molar value.
Listing: pKi of selected compounds
recorded_endpoint: pKi

| chemical_string | data_value |
| --- | --- |
| COc1cccc(OC)c1-c1cccc2c1OC[C@H](N(C)C)C2 | 8.28 |
| CCCN(CCC)[C@H]1COc2c(cccc2-c2ccccc2OC)C1 | 8.57 |
| COc1cccc(OC)c1-c1cccc2c1CC[C@H](N(C)C)C2 | 8.59 |
| CCCN(CCC)[C@H]1COc2c(cccc2-c2ccc(OC)cc2)C1 | 7.90 |
| CCCN(CCC)[C@H]1COc2c(cccc2-c2c(OC)cccc2OC)C1 | 8.19 |
| CCCN(CCC)[C@@H]1COc2c(cccc2-c2ccccc2OC)C1 | 6.44 |
| O=C1c2ccccc2CCCN1CCN1CCC(n2c(=O)[nH]c3cc(F)ccc32)CC1 | 8.65 |
| CCCN(CCC)[C@H]1CCc2c(cccc2-c2ccccc2OC)C1 | 8.76 |
| CCCN(CCC)[C@H]1COc2c(cccc2-c2ccccc2)C1 | 8.53 |
